- System: Escherichia coli
- Procedure details: Antibacterial activity against Escherichia coli MTCC 739 assessed as growth inhibition by agar streak dilution method
- Type: functional
Provide the reported MIC of each item.
Just the number in µg/mL, nothing appended.

`N#Cc1ccc2nc(NC(=O)CSc3nnc(-c4cc5ccccc5oc4=O)o3)sc2c1` on Escherichia coli gives MIC = 50

`CCOc1ccc2nc(NC(=O)CSc3nnc(-c4cc5ccccc5oc4=O)o3)sc2c1` on Escherichia coli gives MIC = 50

`CC(=O)Nc1ccc2nc(NC(=O)CSc3nnc(-c4cc5ccccc5oc4=O)o3)sc2c1` on Escherichia coli gives MIC = 100

`O=C(CSc1nnc(-c2cc3ccccc3oc2=O)o1)Nc1ccccc1` on Escherichia coli gives MIC = 100

`O=C(CSc1nnc(-c2cc3ccccc3oc2=O)o1)Nc1ccc([N+](=O)[O-])cc1` on Escherichia coli gives MIC = 50

`COc1ccc(NC(=O)CSc2nnc(-c3cc4ccccc4oc3=O)o2)cc1` on Escherichia coli gives MIC = 50

`O=C(CSc1nnc(-c2cc3ccccc3oc2=O)o1)Nc1nc2ccc(I)cc2s1` on Escherichia coli gives MIC = 50

`O=C(CSc1nnc(-c2cc3ccccc3oc2=O)o1)Nc1nc2ccc(Br)cc2s1` on Escherichia coli gives MIC = 50

`N#Cc1ccc(NC(=O)CSc2nnc(-c3cc4ccccc4oc3=O)o2)cc1` on Escherichia coli gives MIC = 50

`O=C(CSc1nnc(-c2cc3ccccc3oc2=O)o1)Nc1nc2ccc(Cl)cc2s1` on Escherichia coli gives MIC = 50

`O=C(CSc1nnc(-c2cc3ccccc3oc2=O)o1)Nc1nc2ccc([N+](=O)[O-])cc2s1` on Escherichia coli gives MIC = 100

`O=C(CSc1nnc(-c2cc3ccccc3oc2=O)o1)Nc1ccc(F)cc1` on Escherichia coli gives MIC = 50

`O=C(CSc1nnc(-c2cc3ccccc3oc2=O)o1)Nc1ccc(I)cc1` on Escherichia coli gives MIC = 100

`O=C(CSc1nnc(-c2cc3ccccc3oc2=O)o1)Nc1ccc(Cl)cc1` on Escherichia coli gives MIC = 25

`CCOc1ccc(NC(=O)CSc2nnc(-c3cc4ccccc4oc3=O)o2)cc1` on Escherichia coli gives MIC = 50

`O=C(CSc1nnc(-c2cc3ccccc3oc2=O)o1)Nc1ccc(Br)cc1` on Escherichia coli gives MIC = 12.5

`COc1ccc2nc(NC(=O)CSc3nnc(-c4cc5ccccc5oc4=O)o3)sc2c1` on Escherichia coli gives MIC = 100

`O=C(CSc1nnc(-c2cc3ccccc3oc2=O)o1)Nc1nc2ccc(F)cc2s1` on Escherichia coli gives MIC = 50

Values were extracted from ChEMBL document CHEMBL3044664.
